system: HT-29; assay: Cytotoxicity against human HT-29 cells; assay type: functional; conditions: Homo sapiens, HT-29; read-out: ED50 (the source's name)
measure: EC50 (ng/mL)
Numeric answer only, unit ng/mL assumed.

I'd like to know its EC50. The compound in question is CCCCCCCCCCCC[C@H](O)[C@@H]1CC[C@@H]([C@@H](O)CCCCC(=O)CCCCCC2CC(CC(C)=O)C(=O)O2)O1 (stereo partly drawn) [ISOANNONACINONE]
9

Can you check CCCCCCCCCCCC[C@H](O)[C@@H]1CC[C@@H]([C@@H](O)CCCCC(O)CCCCCC2CC(CC(C)=O)C(=O)O2)O1 (stereo partly drawn) [ISOANNONACIN] next?
2

Can you check CCCC(O)CCC(O)CCC(O)C1CCC(C2CCC(C(O)CCCCCCCCCCCCCC3CC(C)OC3=O)O2)O1 (stereo not drawn) [DIHYDROCHERIMOLINE] next?
1

Can you check CCCCCCCCCCCC[C@@H](O)[C@H]1CC[C@H]([C@H](O)CCCCC(=O)CCCCC[C@@H](O)CC2=C[C@H](C)OC2=O)O1 [ANNONACINONE] next?
1000

Can you check CCCCCCCCCC[C@@H](OC(C)=O)[C@H]1CC[C@H]([C@@H](CC[C@@H](OC(C)=O)[C@@H]2CCC(CCCCCCC[C@@H](CC3=C[C@@H](C)OC3=O)OC(C)=O)O2)OC(C)=O)O1 (stereo partly drawn) [BULLATALICIN TETRAACETATE] next?
1350

Can you check CCCCCCCCCCCC[C@@H](O)[C@H]1CC[C@H]([C@H](O)CCCC[C@H](O)CCCCC[C@@H](O)CC2=CC(C)OC2=O)O1 (stereo partly drawn) [ANNONACIN] next?
3000
